MOR agonist activity, [35S]GTPγS binding to Gαo, 1 μM + BFNA by entry:
target: mu opiate receptor (MOR) (Rattus norvegicus, UniProt P33535); construct: from tissue; host or cells: rat striatal membrane preparation; test: MOR agonist activity using [35S]GTPγS binding assay in striatal membranes; assay type: biochemical; conditions: 1 μM compound + 1 μM β-funaltrexamine
Sequence (P33535 whole entry): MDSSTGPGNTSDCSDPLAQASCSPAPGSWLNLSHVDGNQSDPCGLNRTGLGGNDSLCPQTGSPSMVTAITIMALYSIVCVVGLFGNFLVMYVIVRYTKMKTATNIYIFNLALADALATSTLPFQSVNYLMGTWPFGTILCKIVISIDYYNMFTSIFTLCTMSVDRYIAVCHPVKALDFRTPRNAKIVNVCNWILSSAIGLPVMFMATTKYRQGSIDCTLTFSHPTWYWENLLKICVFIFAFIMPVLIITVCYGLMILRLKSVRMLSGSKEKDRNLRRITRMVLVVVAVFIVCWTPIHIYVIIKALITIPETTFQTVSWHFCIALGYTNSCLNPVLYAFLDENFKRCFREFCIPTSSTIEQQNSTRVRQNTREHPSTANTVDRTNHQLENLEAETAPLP
API: value field is a number in %; no unit string.

// solved cases for MOR agonist activity, [35S]GTPγS binding to Gαo, 1 μM + BFNA follow
{"columns": ["molecule", "measuredValue"],
 "data": [
  ["O=S(=O)(c1csc2ccccc12)N1CCC2(CC1)OCCN2S(=O)(=O)c1csc2ccccc12 [Compound C0150M]", 158.1],
  ["CC(C)c1ccc(S(=O)(=O)N2CCC3(CC2)OCCN3S(=O)(=O)c2ccc(C(C)C)cc2)cc1 [Compound C0007]", 10.9],
  ["COC(=O)c1ccc(S(=O)(=O)N2CCC3(CC2)OCCN3S(=O)(=O)c2ccc(C(=O)OC)cc2)cc1 [Compound C0028]", 78.4]
]}

Hello, I am looking for reported MOR agonist activity, [35S]GTPγS binding to Gαo, 1 μM + BFNA with mu opiate receptor (MOR) (Rattus norvegicus, UniProt P33535) for COc1ccc(S(=O)(=O)N2CCC3(CC2)OCCN3S(=O)(=O)c2ccc(C(C)=O)cc2)cc1 [Compound C0048] . Could you help?
89.9

# query: MOR agonist activity, [35S]GTPγS binding to Gαo, 1 μM + BFNA | item COc1ccc(C(=O)N2CCC3(CC2)OCCN3S(=O)(=O)c2ccc(OC)cc2)cc1 [Compound C0018] | system: mu opiate receptor (MOR) (Rattus norvegicus, UniProt P33535)
106.5

Value wanted: MOR agonist activity, [35S]GTPγS binding to Gαo, 1 μM + BFNA (mu opiate receptor (MOR) (Rattus norvegicus, UniProt P33535)) of entry CC(=O)c1ccc(C(=O)N2CCOC23CCN(S(=O)(=O)c2ccc(C(C)=O)cc2)CC3)cc1 [Compound C0053]
93.1

====

target: mu opiate receptor (MOR) (Rattus norvegicus); construct: from tissue; host or cells: rat striatal membrane preparation; assay: MOR agonist activity using [35S]GTPγS binding assay in striatal membranes; assay type: biochemical; conditions: 0.1 μM compound, striatal membranes
Outcome label depends on MOR agonist activity, [35S]GTPγS binding to Gαo, FLNA-binding compound as agonist 0.1 μM relative to 200%: at/above gives y, below gives n.

For orientation, consider the following solved cases.
{"columns": ["compound", "systemTested", "categoryLabel"],
 "data": [
  ["O=C1CN(Cc2ccccc2)C2(CCN(S(=O)(=O)c3cc(Cl)c(O)c(Cl)c3)CC2)N1 [Compound C0139M]", "mu opiate receptor (MOR) (Rattus norvegicus)", "n"],
  ["O=C(OCc1ccccc1)c1ccc(S(=O)(=O)N2CCC3(CC2)OCCN3S(=O)(=O)c2ccc(C(=O)OCc3ccccc3)cc2)cc1", "mu opiate receptor (MOR) (Rattus norvegicus)", "n"],
  ["O=S(=O)(c1ccc(F)c(F)c1)N1CCC2(CC1)OCCN2S(=O)(=O)c1ccc(F)c(F)c1", "mu opiate receptor (MOR) (Rattus norvegicus)", "n"]
]}

Answer whether MOR agonist activity, [35S]GTPγS binding to Gαo, FLNA-binding compound as agonist 0.1 μM of Cc1ccc(S(=O)(=O)N2CCC3(CC2)OCCN3S(=O)(=O)c2ccc(C)cc2)cc1 is greater than or equal to 200%.
n

Exam item: decide whether the reported MOR agonist activity, [35S]GTPγS binding to Gαo, FLNA-binding compound as agonist 0.1 μM for COc1ccccc1S(=O)(=O)N1CCC2(CC1)OCCN2S(=O)(=O)c1ccccc1OC is at least 200%.
n

Confirm if MOR agonist activity, [35S]GTPγS binding to Gαo, FLNA-binding compound as agonist 0.1 μM reported for the compound O=S(=O)(c1ccc(C(F)(F)F)cc1)N1CCC2(CC1)OCCN2S(=O)(=O)c1ccc(C(F)(F)F)cc1 is 200% or above.
n

Quick check, MOR agonist activity, [35S]GTPγS binding to Gαo, FLNA-binding compound as agonist 0.1 μM >= 200%? CC(=O)c1ccc(S(=O)(=O)N2CCC3(CC2)OCC(CCCCN(C)C)N3S(=O)(=O)c2ccc(C(C)=O)cc2)cc1 (stereo not shown) [Compound C0080M]
n

Assess whether reported MOR agonist activity, [35S]GTPγS binding to Gαo, FLNA-binding compound as agonist 0.1 μM for COc1ccc(S(=O)(=O)N2CCCC3(C2)OCCN3S(=O)(=O)c2ccc(OC)cc2)cc1 (stereo not shown) [Compound C0145M] sits at 200% or higher.
n

Hi team, for Cc1cccc(S(=O)(=O)N2CCC3(CC2)OCCN3S(=O)(=O)c2cccc(C)c2)c1 , is the recorded MOR agonist activity, [35S]GTPγS binding to Gαo, FLNA-binding compound as agonist 0.1 μM at or above 200%?
n

Say whether O=S(=O)(c1cccc2cccnc12)N1CCC2(CC1)OCCN2S(=O)(=O)c1cccc2cccnc12 [Compound C0143M] shows MOR agonist activity, [35S]GTPγS binding to Gαo, FLNA-binding compound as agonist 0.1 μM of 200% or more.
n

Evaluate COc1cc(S(=O)(=O)N2CCC3(CC2)OCCN3S(=O)(=O)c2cc(OC)c(OC)c(OC)c2)cc(OC)c1OC : MOR agonist activity, [35S]GTPγS binding to Gαo, FLNA-binding compound as agonist 0.1 μM at minimum 200%?
n
